Could you please report measured pIC50 for the items listed next?
Target Or Test System: human Cot catalytic domain (30-397 amino acids) (Homo sapiens, UniProt P41279)
Construct: Purified recombinant human Cot catalytic domain (30-397 amino acids) was purchased from Cama Biosciences; purchased Cama Biosciences (so in the source)
Sequence (P41279 30-397): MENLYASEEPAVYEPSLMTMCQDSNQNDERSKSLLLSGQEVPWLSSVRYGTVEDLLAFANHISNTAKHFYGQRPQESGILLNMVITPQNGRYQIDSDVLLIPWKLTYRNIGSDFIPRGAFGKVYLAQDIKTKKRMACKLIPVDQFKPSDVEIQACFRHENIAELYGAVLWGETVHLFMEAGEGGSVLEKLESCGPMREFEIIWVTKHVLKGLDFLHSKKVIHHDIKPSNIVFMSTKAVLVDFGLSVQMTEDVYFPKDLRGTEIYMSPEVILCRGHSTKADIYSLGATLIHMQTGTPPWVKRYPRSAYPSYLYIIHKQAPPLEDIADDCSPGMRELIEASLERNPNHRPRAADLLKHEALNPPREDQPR
Method Notes: High Throughput Cot Biochemical Assay (KinEASE TR-FRET)
Run Conditions: Cot KinEASE TR-FRET (HTRF) biochemical assay, 400 μM ATP; read-out: IC50 HTRF
Quick note: pIC50 values are minus log10 of concentrations in mol/L.

Request: Provide pIC50, system human Cot catalytic domain (30-397 amino acids) (Homo sapiens, UniProt P41279), entry [2H][C@](Nc1cc(Cl)c2ncc(C#N)c(NC3[C@H]4COC[C@@H]34)c2c1)(c1ccc(F)cc1)c1cn(C2CC2)nn1 (stereo partly shown) [Example 142]
Response: 8.10

Request: Provide pIC50, system human Cot catalytic domain (30-397 amino acids) (Homo sapiens, UniProt P41279), entry CC[C@@H](Nc1c(C#N)cnc2c(Cl)cc(N[C@@H](c3cccc(Cl)c3)c3cn(C4CC4)nn3)cc12)c1ccccc1 [Example 273]
Response: 7.89

Request: Provide pIC50, system human Cot catalytic domain (30-397 amino acids) (Homo sapiens, UniProt P41279), entry CC(C)(C)CNc1c(C#N)cnc2c(Br)cc(N[C@@H](c3cccc(-c4ncco4)c3)c3cn(C4CC4)nn3)cc12 [Example 83]
Response: 8.70

Request: Provide pIC50, system human Cot catalytic domain (30-397 amino acids) (Homo sapiens, UniProt P41279), entry N#Cc1cnc2c(Cl)cc(N[C@@H](c3ccc(F)cc3)c3c[nH]nn3)cc2c1Nc1cccnc1F [Example 373]
Response: 5.52

Request: Provide pIC50, system human Cot catalytic domain (30-397 amino acids) (Homo sapiens, UniProt P41279), entry [2H][C@](Nc1cc(C#N)c2ncc(C#N)c(N[C@H](CC)c3ccccc3)c2c1)(c1ccc(F)cc1)c1cn(C)nn1 [Example 208]
Response: 8.52

Request: Provide pIC50, system human Cot catalytic domain (30-397 amino acids) (Homo sapiens, UniProt P41279), entry [2H][C@](Nc1cc(Cl)c2ncc(C#N)c(Nc3cccc(Cl)c3OC)c2c1)(c1ccc(F)cc1)c1cn(C2CC2)nn1 [Example 163]
Response: 8.52

Request: Provide pIC50, system human Cot catalytic domain (30-397 amino acids) (Homo sapiens, UniProt P41279), entry [2H][C@](Nc1cc(Cl)c2ncc(C#N)c(NC(CCC#N)c3ccccc3)c2c1)(c1ccc(F)cc1)c1cn(C2CC2)nn1 (stereo partly shown) [Example 302]
Response: 8.52

Request: Provide pIC50, system human Cot catalytic domain (30-397 amino acids) (Homo sapiens, UniProt P41279), entry [2H]C(Nc1cc(Cl)c2ncc(C#N)c(NCC(C)(C)C)c2c1)(c1ccc(F)cc1)c1cn(C2CC2)cn1 (stereo not shown) [Example 344]
Response: 7.05

Request: Provide pIC50, system human Cot catalytic domain (30-397 amino acids) (Homo sapiens, UniProt P41279), entry [2H][C@](Nc1cc(Cl)c2ncc(C#N)c(N[C@H](CCN3CCCC3)c3ccccc3)c2c1)(c1ccc(F)cc1)c1cn(C2CC2)nn1 [Example 167]
Response: 6.77

Request: Provide pIC50, system human Cot catalytic domain (30-397 amino acids) (Homo sapiens, UniProt P41279), entry [2H]C(Nc1cc(Cl)c2ncc(C#N)c(NC(CCC#N)c3ccccc3)c2c1)(c1cn(C2CC2)nn1)c1ccccc1Cl (stereo not shown) [Example 88]
Response: 6.72

Request: Provide pIC50, system human Cot catalytic domain (30-397 amino acids) (Homo sapiens, UniProt P41279), entry [2H]C(Nc1cc(Cl)c2ncc(C#N)c(N[C@H]3CCCCC3(C)C)c2c1)(c1ccc(F)cc1)c1cn(C2CC2)nn1 (stereo in doubt) [Example 319]
Response: 6.43

Request: Provide pIC50, system human Cot catalytic domain (30-397 amino acids) (Homo sapiens, UniProt P41279), entry [2H][C@](Nc1cc(Cl)c2ncc(C#N)c(Nc3cccc(Cl)c3C)c2c1)(c1ccc(F)cc1)c1cn(C2CC2)nn1 [Example 159]
Response: 6.94

Request: Provide pIC50, system human Cot catalytic domain (30-397 amino acids) (Homo sapiens, UniProt P41279), entry [2H][C@](Nc1cc(C#N)c2ncc(C#N)c(N[C@H](CC)c3ccccc3)c2c1)(c1ccc(F)cc1)c1cn(C2(C(F)(F)F)CC2)nn1 [Example 132]
Response: 7.85
